systemName: Serine/threonine-protein kinase PAK 3 (Homo sapiens);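 note: mean percent inhibition of PAK3, measured in a screen of the GSK published kinase inhibitor set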
studyConditions: at 0.1 µM
Label true (1) when inhibition is at or above 2%; anything below gets false (0).

Consider the worked cases shown below.
Reported inhibition at or above 2%? COc1cc(C=NNc2ncnc3c2cnn3-c2ccccc2)ccc1O
true (1)

Reported inhibition at or above 2%? CC1=C(C(=O)Nc2ccc3[nH]ncc3c2)C(c2ccc3ccccc3c2)CC(=O)N1 (stereo not given)
true (1)

Reported inhibition at or above 2%? Cc1cccc(-c2n[nH]cc2-c2ccc3ncccc3n2)n1
false (0)

Kindly review the next compound as well.
Reported inhibition at or above 2%? NC(=O)c1ccc(-c2nc(-c3ccccn3)c(-c3ccc4c(c3)OCO4)[nH]2)cc1
true (1)

###

systemName: Serine/threonine-protein kinase SIK1 (Homo sapiens);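 note: mean inhibition value from the GSK PKIS profiling set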
studyConditions: at 1 µM
Parameter inhibition: see the listing below.
Expressed in %, but write only the number.

For orientation, consider the following solved cases.
inhibition of Cc1nn(C)c2cc(N(C)c3ccnc(Nc4cccc(S(N)(=O)=O)c4)n3)ccc12 on Serine/threonine-protein kinase SIK1 (Homo sapiens)?
55.3

inhibition of COC(=O)Nc1nc2cc(Oc3ccc(NC(=O)Nc4cccc(C(=O)O)c4)cc3)ccc2[nH]1 on Serine/threonine-protein kinase SIK1 (Homo sapiens)?
1.25

inhibition of CCc1cccc(NC(=O)Nc2ccc(Oc3ccc4nc(NC(=O)OC)[nH]c4c3)cc2)c1 on Serine/threonine-protein kinase SIK1 (Homo sapiens)?
2.27

---
inhibition of Nc1ncnc2occ(-c3ccc(NC(=O)Nc4cccc(C(F)(F)F)c4)cc3)c12 on Serine/threonine-protein kinase SIK1 (Homo sapiens)?
9.69

inhibition of O=C1NC(=O)C(c2cccc(Cl)c2)=C1Nc1ccc(O)c(Cl)c1 on Serine/threonine-protein kinase SIK1 (Homo sapiens)?
9.22

inhibition of CCCN1CCC(Oc2cc(Nc3nc(Nc4cccc(F)c4C(N)=O)c4cc[nH]c4n3)c(OC)cc2Cl)CC1 on Serine/threonine-protein kinase SIK1 (Homo sapiens)?
2.28

inhibition of CCn1c(-c2nonc2N)nc2c(N3CCCC3)nccc21 on Serine/threonine-protein kinase SIK1 (Homo sapiens)?
-2.47

inhibition of CS(=O)(=O)CCNCc1ccc(-c2ccc3ncnc(Nc4ccc(OCc5ccccc5)c(Cl)c4)c3c2)o1 on Serine/threonine-protein kinase SIK1 (Homo sapiens)?
4.15

inhibition of COc1ccc(-c2nn3ncccc3c2-c2ccnc(Nc3ccc(Cl)c(C(F)(F)F)c3)n2)cc1 on Serine/threonine-protein kinase SIK1 (Homo sapiens)?
5.43

inhibition of NS(=O)(=O)c1cccc(-c2ccc3c(NC(=O)C4CC4)n[nH]c3c2)c1 on Serine/threonine-protein kinase SIK1 (Homo sapiens)?
-0.1

inhibition of Cc1cc(O)cc(C)c1/C=C/c1cncc(-c2nn[nH]n2)c1 on Serine/threonine-protein kinase SIK1 (Homo sapiens)?
94.7

###

systemName: Serine/threonine-protein kinase Chk2 (Homo sapiens) (UniProt O96017)
Sequence (O96017 whole entry): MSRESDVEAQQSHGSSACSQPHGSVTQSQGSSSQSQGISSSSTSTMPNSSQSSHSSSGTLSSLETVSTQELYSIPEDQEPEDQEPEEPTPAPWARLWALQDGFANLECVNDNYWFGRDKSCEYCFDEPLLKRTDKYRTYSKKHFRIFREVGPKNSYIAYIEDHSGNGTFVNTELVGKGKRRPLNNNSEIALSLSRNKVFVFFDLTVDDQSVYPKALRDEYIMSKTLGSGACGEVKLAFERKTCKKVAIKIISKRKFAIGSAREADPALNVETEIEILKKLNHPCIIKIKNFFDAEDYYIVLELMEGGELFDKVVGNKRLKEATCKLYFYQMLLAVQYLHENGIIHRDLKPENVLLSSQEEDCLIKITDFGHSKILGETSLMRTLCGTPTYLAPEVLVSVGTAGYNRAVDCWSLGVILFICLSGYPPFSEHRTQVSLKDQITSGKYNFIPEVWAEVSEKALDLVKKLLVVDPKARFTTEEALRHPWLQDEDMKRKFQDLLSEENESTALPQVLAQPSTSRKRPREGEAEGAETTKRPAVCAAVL
studyConditions: at 0.1 µM
Description: GSK_PKIS: CHEK2 mean inhibition at 0.1 uM [Nanosyn]
reportedProperty: inhibition (%)
Expressed in %, but write only the number.

Query: inhibition; subject: COc1cccc(-n2ncc3c(N/N=C/c4cccc(F)c4)ncnc32)c1
1.45

Query: inhibition; subject: Cc1ccc(C(=O)NC2CCCCC2)cc1-c1ccc(C(=O)NCC2CC2)cc1
1.33

Query: inhibition; subject: CCn1c(-c2nonc2N)nc2c(N3CCCC3)nccc21
-2.44

Query: inhibition; subject: CCn1c(-c2nonc2N)nc2c(C#CC(C)(C)O)nc(OC[C@@H](N)c3ccccc3)cc21
-5.8

Query: inhibition; subject: CC(C)=Cc1cccc2c1/C(=N/Nc1ccc(S(N)(=O)=O)cc1)C(=O)N2
5.36

Query: inhibition; subject: COc1ccc(-c2nn3ncccc3c2-c2ccnc(Nc3ccc(Cl)c(C(F)(F)F)c3)n2)cc1
1.35
